Just for reference, PubChem BioAssay (NCI) is where these values come from.

# System: NCI/ADR-RES ovarian
# protocol: NCI-60 one-dose screen, 48 h
# assay_setup: 10 µM
This is part of a sample that, as a whole, favours compounds with a hit. Of some 83,000 tested, about 20% had one in any assay. Active and inactive are the calls of the source. Rule for the calls: active = growth percent below 10; inactive = the rest.
Your reply should match one of these outcome classes. label 1 (active), label 0 (inactive)

compound	cat
CC(=O)c1cc(Cl)ccc1O	label 0
Cc1cc2c(C)c3cc(C)c(N)cc3nc2cc1N	label 0
CC/C(=C(/c1ccc(OCCN(C)C)cc1)c1ccc(OC(=O)CCC(=O)c2c(C)[nH]c(/C=C3\N=C(c4ccc[nH]4)C=C3OC)c2C)cc1)c1ccccc1	label 0

In this assay, the call recorded for N=c1nc(N)ncn1-c1ccccc1 was what?
label 0

Hi, do you know how Clc1nc(Cl)c2c(ncn2C/C=C\Cn2cnc3c(Cl)nc(Cl)nc32)n1 came out in this test?
label 0

Short answer needed: outcome of this test for CCOC(=O)C(NC(=O)C(Cl)Cl)C(O)c1ccccc1 (configuration not stated) ?
label 0

What did this assay record as the result for CCCCCCN1C(=O)C2=C(c3ccc(Cl)cc3)Nc3c(c(C)nn3-c3ccccc3)C2c2ccccc21 (configuration not stated) ?
label 0

What did the test return for CCCCCCCCCCCCC1C/C=C\CCCC(=O)O1 (configuration not stated) ?
label 0

Hey, what did the test say about COc1ccc(S(=O)(=O)Nc2c(/C=C\c3cc(OC)c(OC)c(OC)c3)ccc(OC)c2O)cc1 ?
label 1

* * *

# System: MDA-MB-231 breast
# protocol: NCI-60 one-dose screen, 48 h
# assay_setup: 10 µM
Compounds without any hit were thinned out: in the full panel of roughly 83,000, 20% have a hit. Activity calls are given as the source filed them. Rule for the calls: active = growth percent below 10; inactive = the rest.
The categories you may choose from are active, inactive

molecule	cat
CC(C)(C)c1ccc(N2CSC(=S)N(c3ccc(C(C)(C)C)cc3)C2)cc1	inactive
CCN(CCCCCCN1CC(=O)N(CCCCCCN(CC)Cc2ccccc2OC)CC1=O)Cc1ccccc1OC	inactive
Nc1ncn(C2OC(CO)C(O)C2O)c(=O)n1 (stereo not given)	active

Recorded test outcome, item COc1cc(C(=O)N2CCN(c3ccccc3OC)CC2)c(N)cc1OCCCN1CCN(c2ccccc2OC)CC1
inactive

Hi team, can someone confirm the assay call for COc1ccccc1/C=C/C(=O)c1ccccc1 ?
inactive

Per the assay record, what outcome was assigned to O=[N+]([O-])c1ccc(Oc2cccnc2)c([N+](=O)[O-])c1 ?
inactive

Status in this test for Nc1cc2c(cc1Cl)-c1ccc([N+](=O)[O-])cc1/C2=N\O ?
inactive

Please share the test call associated with COc1ccc(Nc2ncnc3c2c(SC)nn3-c2ccccc2)cc1 .
inactive

Dear colleague, could you share the recorded outcome for Clc1ccc(Nc2ccnc(NCCNc3ccnc4cc(Cl)ccc34)n2)cc1 when you have a moment?
active

Status in this test for O=C(Nc1nc(-c2ccccc2Cl)cs1)c1cc(-c2ccc(Cl)cc2)nc2ccc(Cl)cc12 ?
inactive

* * *

Measured growth, listed per entry.
# System: SF-268 CNS
# protocol: NCI-60 one-dose screen, 48 h (100 = growth as untreated, 0 = no growth, -100 = all killed)
# assay_setup: 10 µM
The panel holds about 83,000 compounds, 20% with a hit somewhere; the sample as a whole holds those more often.
Give a bare numeral; the unit % is implied.

compound	growth [%]
Cc1nc2ccc(CN(C)c3ccc(C(=O)N[C@@H](CCC(=O)O)C(=O)O)s3)cc2c(=O)[nH]1	26.4
CCCCCCCCCCCCCCCCN(C(C)c1ccccc1)S(=O)(=O)c1ccc(OC)c(N)c1 (configuration not stated)	108
CCCCOc1ccc(NC(=O)Nc2nnc(C)s2)cc1	109
CCN(CC)CCCOCCCNc1cc(OC)cc2cccnc12	96.7
COc1cc2cc3c(nc2cc1OC)CCN3Cc1ccc(NC(=O)Nc2cc(C(F)(F)F)cc(C(F)(F)F)c2)cc1	78.6

Field: growth (SF-268 CNS). Entry: CCCCCCCCCCCCCCCCCC(=O)OCCCCCCC
94.9

For the record Cc1cc(O)c(C(C)(C)C)cc1Sc1cc(C(C)(C)C)c(O)cc1C , what value of growth is listed for SF-268 CNS?
49.4

Form: Entry = Cc1cccc2c(NCCN(C)C)c3cccc(C(=O)NCCN(C)C)c3nc12 | System = SF-268 CNS | growth = ____
11.3

Give recorded growth with SF-268 CNS for the following compound: CN(C)CCOc1nc2ccccc2c2c1-c1ccc(Cl)cc1C2=O
-25.3

For the record COc1cccc(-c2cc(-c3cccc(NS(C)(=O)=O)c3)nc(N)c2C#N)c1O , what value of growth is listed for SF-268 CNS?
42.6

Requested read-out growth, target or system SF-268 CNS, entry COc1cc(OC)cc(-c2cncn2-c2ccc(-c3nc4cc(OC)cc(OC)c4s3)cc2)c1
68.5

SF-268 CNS / growth / CCN1CCC(CCOC)(CN2c3ccccc3Sc3ccc(Cl)cc32)C1 (configuration not stated) : value?
63.3

GET /values?readout=growth&system=SF-268 CNS&item= COc1ccc2c(c1)sc1nc(-c3ccccc3)c(-c3ccc(O)c(OC)c3)n12
88.7

# get_value(readout= growth, system= SF-268 CNS) for CCN(CC)CCCC(C)Nc1nc(-c2ccc(OC)cc2)nc2cc(Cl)ccc12 (configuration not stated)
60.1

Recorded growth for COc1ccc2c(c1)[n+]([O-])c(C#N)c(NC(=O)c1ccco1)[n+]2[O-] with SF-268 CNS, please?
107

What measured growth is associated with c1ccc(CP(Cc2ccccc2)c2ccccc2)cc1 on SF-268 CNS?
110
